Source of measurements: patent US20110086770A1

- assaySystem: T1, recombinant human IL-23R/Fc chimera (R&D Systems) (human, UniProt Q5VWK5 24-353)
- T1 construct: bought; also called human IL-23R/Fc fusion protein; rhIL23RFc
- T1 sequence (looked up): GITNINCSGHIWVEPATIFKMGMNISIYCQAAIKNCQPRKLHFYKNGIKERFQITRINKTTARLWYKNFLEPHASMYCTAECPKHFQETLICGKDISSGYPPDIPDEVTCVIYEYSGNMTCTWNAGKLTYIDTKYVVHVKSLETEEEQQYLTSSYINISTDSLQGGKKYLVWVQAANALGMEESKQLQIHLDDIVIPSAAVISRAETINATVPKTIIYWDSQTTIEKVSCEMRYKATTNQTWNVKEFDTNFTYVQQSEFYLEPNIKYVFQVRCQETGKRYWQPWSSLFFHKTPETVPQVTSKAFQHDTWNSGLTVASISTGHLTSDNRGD
- assayProtocol: competition ELISA against IL-23
readoutType: Ratio IC50 to 056-53.H4E IC50 (ratio)
Use ratio as the unit, but write only the number.

1) 105-20-2G12 ATRIMER (designed binder, not shown: C-terminal tag: Myc/His6 (pANA4) or HA-StrepII (pANA10); A Ser left at the ompA junction may also sit at the N-terminus) EPPTQKPKKIVNAKKDVVNTKMFEELKSRLDTLAQEVALLKEQQALQTVCLKGTKVHMKCFLAFTQTKTFHEASEDCISRGGTLSTPQTGSENDALYEYLRQSVGNEAEIWLGLNGSPRTNTWVDMTGARIAYKNWETEITAQPDGGFGYFGENCAVLSGAANGKWFDKRCRDQLPYICQFGIV	1

Could you now consider this next binder?
Q) Give the reported Ratio IC50 to 056-53.H4E IC50 for this binder. 105-08-2H6 ATRIMER (designed binder) EPPTQKPKKIVNAKKDVVNTKMFEELKSRLDTLAQEVALLKEQQALQTVCLKGTKVHMKCFLAFTQTKTFHEASEDCISRGGTLSTPQTGSENDALYEYLRQSVGNEAEIWLGLNGSPVTGTWVDMTGARIAYKNWETEITAQPDGGFGYFGENCAVLSGAANGKWFDKRCRDQLPYICQFGIV
A) 2
